Recorded values, source the supplement of paper PMC10065799.

molecular target: Jak2 (UniProt O60674); test: phosphorylation enrichment, bacterial display (enrichment ratio); higher = better substrate or ligand; peptides without Tyr show the background
Sequence (O60674 whole entry, looked up): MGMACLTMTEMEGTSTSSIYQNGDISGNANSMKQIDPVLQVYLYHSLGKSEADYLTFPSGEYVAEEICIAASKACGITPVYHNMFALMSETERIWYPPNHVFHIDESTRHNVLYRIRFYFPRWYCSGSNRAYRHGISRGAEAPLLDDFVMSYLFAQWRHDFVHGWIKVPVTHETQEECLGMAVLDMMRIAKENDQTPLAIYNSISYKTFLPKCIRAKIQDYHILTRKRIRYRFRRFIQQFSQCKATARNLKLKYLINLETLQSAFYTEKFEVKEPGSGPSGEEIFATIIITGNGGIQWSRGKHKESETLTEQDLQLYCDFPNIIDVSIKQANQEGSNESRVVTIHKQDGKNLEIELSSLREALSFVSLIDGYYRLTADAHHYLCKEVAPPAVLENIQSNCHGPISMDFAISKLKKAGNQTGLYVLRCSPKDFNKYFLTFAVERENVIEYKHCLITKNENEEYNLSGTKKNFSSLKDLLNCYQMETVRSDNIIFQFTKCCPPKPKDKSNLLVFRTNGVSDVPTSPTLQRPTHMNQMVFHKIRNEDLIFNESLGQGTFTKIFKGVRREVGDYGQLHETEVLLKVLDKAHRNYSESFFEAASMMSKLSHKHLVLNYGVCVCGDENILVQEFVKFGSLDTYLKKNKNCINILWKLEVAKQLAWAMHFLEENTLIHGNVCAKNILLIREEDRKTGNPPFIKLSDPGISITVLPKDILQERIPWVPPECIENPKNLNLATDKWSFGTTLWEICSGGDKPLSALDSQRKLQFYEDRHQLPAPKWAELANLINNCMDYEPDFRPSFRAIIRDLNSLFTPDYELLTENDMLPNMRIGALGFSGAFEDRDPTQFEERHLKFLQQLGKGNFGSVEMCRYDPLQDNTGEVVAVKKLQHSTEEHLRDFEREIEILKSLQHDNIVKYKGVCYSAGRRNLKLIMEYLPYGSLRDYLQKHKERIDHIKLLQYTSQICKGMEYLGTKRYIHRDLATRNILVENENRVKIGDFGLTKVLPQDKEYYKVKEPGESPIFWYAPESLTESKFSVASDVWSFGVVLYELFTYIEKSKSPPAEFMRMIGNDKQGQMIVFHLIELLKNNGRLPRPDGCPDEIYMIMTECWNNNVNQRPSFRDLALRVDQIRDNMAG
A collection of sequences and their measured phosphorylation enrichment

item-sequence	tested-system	phosphorylation enrichment
TFHNTYHSQMR [IL1RAPL1_Y615]	Jak2 (UniProt O60674)	0.849
GTVRDYPDFNP [ANXA3_Y15_S19N]	Jak2 (UniProt O60674)	0.9
QNTADYYDLYG [PTPN11_Y62_G60A]	Jak2 (UniProt O60674)	2.14
CYCSWYRGWAP [TIMP3_Y195_G190C]	Jak2 (UniProt O60674)	1.04

###

target: Grb2 SH2 (UniProt P62993); assay: SH2 binding enrichment of the phosphorylated peptide, bacterial display (enrichment ratio); higher = better substrate or ligand; peptides without Tyr show the background
Sequence (P62993 whole entry, looked up): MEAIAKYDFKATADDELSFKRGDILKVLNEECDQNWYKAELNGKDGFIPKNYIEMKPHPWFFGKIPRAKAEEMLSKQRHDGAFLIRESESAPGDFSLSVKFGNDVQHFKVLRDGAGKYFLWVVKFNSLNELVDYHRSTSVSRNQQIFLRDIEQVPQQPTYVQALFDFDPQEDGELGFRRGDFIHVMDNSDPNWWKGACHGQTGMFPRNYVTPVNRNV

item-sequence	tested-system	SH2 binding enrichment
GSCQEYTGAPF [NAXD_Y85_G81S_YF]	Grb2 SH2 (UniProt P62993)	0.946
TGDVQYRSSVR [FREM2_Y2158]	Grb2 SH2 (UniProt P62993)	1.02
GGSTYYIDTNA [ACTL6A_Y69_P66S]	Grb2 SH2 (UniProt P62993)	1.03
AEEKEYHAEGG [EGFR_Y869]	Grb2 SH2 (UniProt P62993)	0.924
VEQIHYIGQNE [HMOX2_Y140_R137Q]	Grb2 SH2 (UniProt P62993)	0.834
VRRVGYVSGWG [HP_Y280_G276R]	Grb2 SH2 (UniProt P62993)	0.95

###

target: Grb2 SH2 (UniProt P62993); assay: SH2 binding enrichment of the phosphorylated peptide, bacterial display (enrichment ratio); higher = better substrate or ligand; peptides without Tyr show the background
So basically: SH2 binding enrichment at 0.9 or higher? That is Fulfilled. Lower than 0.9? That is Not fulfilled.

item-sequence	class-label
KNITEYCRHLI [RECQL_Y492_D495H]	Not fulfilled
TSFQMYDKGLV [IARS2_Y231_F227S_YF]	Not fulfilled
FSCLPYRRLAF [SLC52A2_Y305_G306R_YF]	Not fulfilled
IVEFAYNDKAV [PUM3_Y259_I264V_YF]	Not fulfilled
QKFMAYPSQGG [HLCS_Y236_L237P]	Fulfilled
QDIMAYRSREV [BCL6_Y157_G159S]	Not fulfilled
RRQDLYSARDL [SART1_Y249]	Fulfilled
NDTAGYFVIGG [SEL1L3_Y399_I401V]	Not fulfilled
GADAIYDHINE [UQCR10_Y44]	Not fulfilled
IKEFKYGIEEH [GJA1_Y137_K134E]	Not fulfilled
YTGSTYRVGDT [FN1_Y106_N104S]	Not fulfilled
LREIRYQGGNR [VWF_Y1570_V1565L]	Not fulfilled
YVPSNYVAEDR [FRK_Y104_I100V]	Not fulfilled
LAIEWYVVVCK [RHO_Y136_R135W]	Fulfilled
FEAMEYLESKQ [BTK_Y511_C506Y_YF]	Not fulfilled
MSFDRYMAVCH [OR2A5_Y123_I126V_YF]	Not fulfilled
PSDSGYSFETI [MAP1B_Y1921_YF]	Fulfilled
IIWDSYTTNKM [GNB4_Y85]	Fulfilled
VVSMNYRVGAL [BCHE_Y174]	Not fulfilled
QNTGFYFDLFG [PTPN11_Y62_D61Y_YF]	Fulfilled
KASRKYYAMKI [AKT3_Y173_G171R]	Fulfilled
VPEANYTSDEE [STK33_Y439_D436E]	Not fulfilled
RPSELYFSKIG [SMG1_Y2253_YF]	Fulfilled
GIADDYDKKKP [EIF1_Y54_L59P]	Not fulfilled
SPPILYSFYLN [FCRL6_Y239_D244N]	Fulfilled
SMEGLYSSAQD [CLIC5_Y111_T114A]	Not fulfilled
RLVTRYIFNRE [HLA-DQB1_Y62_Y58L_YF]	Not fulfilled
DDEENYENVPR [FCRL3_Y722]	Fulfilled
DVCKKYAEAKD [ALB_Y343_N342K]	Not fulfilled
KIIATYRLCSE [DNAH3_Y1586_V1583I]	Not fulfilled
GSQERYFELVE [TSC2_Y407]	Not fulfilled
FFRKFYNKSED [RYR1_Y4864]	Not fulfilled
GSRGKYSSGFH [ATM_Y332_R337H]	Fulfilled
GADDSYYTVRS [ZAP70_Y492_A495V]	Fulfilled

###

test system: Fer (mouse); assay: phosphorylation enrichment, bacterial display (enrichment ratio); higher = better substrate or ligand; peptides without Tyr show the background
So basically: phosphorylation enrichment at 0.5 or higher? That is Satisfied. Lower than 0.5? That is Not satisfied.

item-sequence	class-label
VIKDKYPQARF [APTX_Y209_K211Q_YF]	Not satisfied
HQNGTYGLHQD [SGSH_Y89_M88T]	Not satisfied
GLGGGYGGASG [KRT8_Y54]	Not satisfied
SGETKYNPTEA [NBEAL2_Y2748_E2747K]	Satisfied
TKEPKYGGAGS [KIAA1210_Y1615_E1616G]	Not satisfied
RTLIRYAKLGN [BEST1_Y131_N133K]	Satisfied
LQTFHYHGHSM [PDHA1_Y289_R288H_YF]	Not satisfied
NNHGNYIVHLG [ETFDH_Y172_R175H]	Satisfied
IIWDSYTTNKM [GNB4_Y85]	Satisfied
YPKARYRWLVL [APTX_Y214_H215R]	Not satisfied
KFVKMCDNHQL [MYO9A_Y203_Y203C_YF]	Not satisfied

###

target: Fes (UniProt P07332); test: phosphorylation enrichment, bacterial display (enrichment ratio); higher = better substrate or ligand; peptides without Tyr show the background
Sequence (P07332 whole entry, looked up): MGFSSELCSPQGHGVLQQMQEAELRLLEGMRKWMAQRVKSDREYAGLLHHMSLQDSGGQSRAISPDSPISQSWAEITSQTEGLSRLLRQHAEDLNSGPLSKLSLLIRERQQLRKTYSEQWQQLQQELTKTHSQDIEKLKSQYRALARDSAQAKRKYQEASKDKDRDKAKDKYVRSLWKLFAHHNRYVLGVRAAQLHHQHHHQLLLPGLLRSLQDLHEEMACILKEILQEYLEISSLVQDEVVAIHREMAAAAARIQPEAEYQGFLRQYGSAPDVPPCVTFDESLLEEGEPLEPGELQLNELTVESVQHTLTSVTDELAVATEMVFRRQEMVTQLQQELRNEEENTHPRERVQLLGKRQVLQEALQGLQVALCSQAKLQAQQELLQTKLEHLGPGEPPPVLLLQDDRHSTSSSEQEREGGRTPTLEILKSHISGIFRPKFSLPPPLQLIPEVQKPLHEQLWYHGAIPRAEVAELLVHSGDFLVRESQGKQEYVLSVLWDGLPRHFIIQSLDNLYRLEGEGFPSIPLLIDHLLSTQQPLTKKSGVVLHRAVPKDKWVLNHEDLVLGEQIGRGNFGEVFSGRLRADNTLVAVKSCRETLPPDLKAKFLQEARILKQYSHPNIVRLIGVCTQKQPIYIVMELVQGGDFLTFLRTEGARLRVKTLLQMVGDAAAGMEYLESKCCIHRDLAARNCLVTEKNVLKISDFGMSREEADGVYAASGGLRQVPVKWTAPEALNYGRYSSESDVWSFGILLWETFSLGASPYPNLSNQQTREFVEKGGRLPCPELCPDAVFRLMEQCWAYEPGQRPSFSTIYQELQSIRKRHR
So basically: phosphorylation enrichment at 1 or higher? That is Met. Lower than 1? That is Not met.

item-sequence	tested-system	class-label
LAVVDYIRRQK [ATM_Y1915_M1916I]	Fes (UniProt P07332)	Met
LHRHAYPEQQQ [DPPA2_Y127_R131Q]	Fes (UniProt P07332)	Not met
YVPSNYVAEDR [FRK_Y104_I100V]	Fes (UniProt P07332)	Not met
KKFVPYFDLFM [IPO5_Y530_E525K_YF]	Fes (UniProt P07332)	Met
VAMELYVFGGV [GAN_Y471]	Fes (UniProt P07332)	Met
EALDFYGEVKT [PTEN_Y155_R159K]	Fes (UniProt P07332)	Met
RCFVFYFSFLL [PTEN_Y177_R173C_YF]	Fes (UniProt P07332)	Not met
NLSVPYDSSLK [ABCC8_Y1353_R1352P]	Fes (UniProt P07332)	Not met
GCKKRYDKDKP [THAP1_Y14_N12K]	Fes (UniProt P07332)	Not met
GNLLIYTDFGK [HGD_Y166_E168D]	Fes (UniProt P07332)	Met
DALDNYVVRGV [PCCA_Y473_I475V]	Fes (UniProt P07332)	Not met
FSGDFYRIQGR [DDR2_Y741_YF]	Fes (UniProt P07332)	Not met
HNGVSYFINLC [IGF2R_Y2024_YF]	Fes (UniProt P07332)	Met
KLFFIYTSGTT [SLC27A4_Y245_YF]	Fes (UniProt P07332)	Met
EPFKVYRIVPE [IRF8_Y110_YF]	Fes (UniProt P07332)	Not met
TYEYKYPEGSS [TGM4_Y440]	Fes (UniProt P07332)	Met
MSRDVYSTDYY [NTRK2_Y702]	Fes (UniProt P07332)	Not met
KQINDYVEKGT [SERPINA1_Y184]	Fes (UniProt P07332)	Not met
PLGVLYKVKVF [PTS_Y128_V124L_YF]	Fes (UniProt P07332)	Met
LRGVIYVILRK [PMP22_Y153_S149R]	Fes (UniProt P07332)	Met
DGTESYLTVSS [PLK1_Y462]	Fes (UniProt P07332)	Not met
WRPFGYPRCRR [BCS1L_Y181_R184C]	Fes (UniProt P07332)	Not met
GPIFRYDSGGA [CYP11B1_Y81_L83S]	Fes (UniProt P07332)	Not met
PLDGEYFTLHI [TP53_Y327_Q331H]	Fes (UniProt P07332)	Met
YYHCTYKKRMI [CLEC12A_Y242]	Fes (UniProt P07332)	Met
VHFARYLAMNK [HARS1_Y138_P134H]	Fes (UniProt P07332)	Not met
FIAVGYVDDTQ [HLA-A_Y51]	Fes (UniProt P07332)	Not met
SGGSSYGSGGG [KRT1_Y532]	Fes (UniProt P07332)	Not met
FLQTDDTSQVS [FRMPD1_Y846_Y846D]	Fes (UniProt P07332)	Met
KIVYVYVKKRS [DNAI2_Y7_E2K]	Fes (UniProt P07332)	Met
KNKLNYTLPQD [NRAP_Y523]	Fes (UniProt P07332)	Not met
MRALTYCDLHK [KCNH2_Y827_V822M]	Fes (UniProt P07332)	Met
DVCKNYTEAKD [ALB_Y343_A344T]	Fes (UniProt P07332)	Not met
VPLATYMQIFK [RPL21_Y30_R32Q_YF]	Fes (UniProt P07332)	Not met
KASGKYYAMKI [AKT3_Y173]	Fes (UniProt P07332)	Not met
LVMFIYDIFGM [SCN1A_Y1684_A1685D]	Fes (UniProt P07332)	Met
ERPGVYTNVVE [F11_Y608]	Fes (UniProt P07332)	Not met
NHQYDYTFHWT [CSNK1A1_Y294_D297H]	Fes (UniProt P07332)	Not met
FAKTQYPDVFA [CRX_Y63_YF]	Fes (UniProt P07332)	Not met
GQRDLYSGLNQ [CD3E_Y199]	Fes (UniProt P07332)	Not met
LDPMVYMNDKS [PTK2B_Y834]	Fes (UniProt P07332)	Met
FSSLGYPLPEG [ZSWIM4_Y87_P89L_YF]	Fes (UniProt P07332)	Not met
SQINLYQDVML [ZNF806_Y33_A28S]	Fes (UniProt P07332)	Met
LRYDSYWSYCN [SLC20A2_Y433_S434W]	Fes (UniProt P07332)	Met
